system: phospho-FMS in THP-1 cells; test: Phospho-FMS ELISA assay in THP-1 cells; format: cell-based; conditions: Homo sapiens, 4 h compound, M-CSF stimulation 5 min, read-out: pFMS inhibition in THP-1 cells
pIC50: −log10 of the molar value.
Property: pIC50; scope: individual molecules

Look up pIC50: Cc1nc(-n2nc(C(C)(C)C)[nH]c2=O)ccc1Oc1ccnc(NC(=O)N(C)C)c1 6.00 to 7.00

For the molecule Cc1nc(-n2nc(CC(C)C)[nH]c2=O)ccc1Oc1ccnc(-c2cnn(C)c2)c1 , what pIC50 is on record? ≥ 8.00

pIC50 lookup needed for Cc1nc(-n2nc(C(C)(C)C)n(C)c2=O)ccc1Oc1ccnc(-c2cnn(C)c2)c1 , thanks. 6.00 to 7.00

What does the data say about its pIC50? Entry: COC(C)(C)c1nn(-c2ccc(Oc3ccnc(-c4cnn(C)c4)c3)c(C)n2)c(=O)[nH]1 6.00 to 7.00
